Provide the reported pIC50 of each item.
# target under test: T1, HLA-A03.01 (human)
# T1 construct: Purified class I MHC
# assay details: competition with radiolabeled reference peptide, purified MHC I
In simple prose, pIC50 is minus the logarithm base ten of a concentration in moles per litre.

I have this binder here, KRVNTAWKTK (also called TFAM(+1)) , and I need its recorded pIC50.
6.48

Name the reported pIC50 value associated with the binder MLLRLNLRK (also called SEC31A(-1))
8.89

Bench note: what pIC50 did KISNWSLKKV (also called SMAP1(-1)) show?
6.94

Requested field: pIC50. Item: TYTCAITTVK (also called SEC63 (+1))
5.63

Any idea what pIC50 was measured for KSRQNHLQLK (also called SMAP1(-1)) ?
8.33
